Molecular target: human FPRL2 (Homo sapiens, UniProt P25089)
Sequence (P25089 whole entry): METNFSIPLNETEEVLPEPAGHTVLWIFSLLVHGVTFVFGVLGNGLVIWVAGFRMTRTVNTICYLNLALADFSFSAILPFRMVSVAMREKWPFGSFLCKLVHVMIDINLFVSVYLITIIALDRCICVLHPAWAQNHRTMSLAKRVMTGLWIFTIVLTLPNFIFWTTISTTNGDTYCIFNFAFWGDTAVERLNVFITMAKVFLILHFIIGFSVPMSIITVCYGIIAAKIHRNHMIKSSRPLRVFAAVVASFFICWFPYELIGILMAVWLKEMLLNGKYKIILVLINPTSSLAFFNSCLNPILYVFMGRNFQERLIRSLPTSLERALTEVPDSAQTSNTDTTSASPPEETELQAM
Test: Intracellular calcium measurements (FLIPR), agonistic activity in HEK293-hFPRL2-Gα16 cells
Conditions: Fluo-4 calcium FLIPR, normalized to GLY14-Humanin 100 nM
OBSERVABLE: log10(EC50) (log10 of the value in nM)
Recorded EC50 (log10, nM)

// below: answered molecules
CC(=O)c1ncc(CNC(=O)[C@H]2[C@H](C(=O)NCCCCN3CCCC3)[C@H]3C=C[C@@H]2C32CC2)o1 (racemic) [Example 198] ... 2.66
Cc1ccc(CCNC(=O)[C@H]2[C@H](C(=O)NCCCCN3CCCC3)[C@H]3C=C[C@@H]2C32CC2)c(C)c1 (racemic) [Example 385] ... 1.43
COc1ccc(CCNC(=O)[C@H]2[C@H](C(=O)NCCCCN3CCCC3)[C@H]3C=C[C@@H]2C32CC2)cc1Br (racemic) [Example 384] ... 1.86
COc1cc(F)c(CNC(=O)[C@H]2[C@H](C(=O)NCCCCN3CCCC3)[C@H]3C=C[C@@H]2C32CC2)c(F)c1 (racemic) [Example 226] ... 2.55
COCCNC(=O)[C@H]1[C@H](C(=O)Nc2ccc(Br)cc2)[C@@H]2C=C[C@H]1C21CC1 [Example 31] ... 3.15

Req: Please tell me: log10(EC50) of O=C(Nc1ccc(Br)cc1)C1C(C(=O)NC2CCNC2)C2C=CC1C21CC1 (mixture of isomers) [Example 9] , system human FPRL2 (Homo sapiens, UniProt P25089)?
Resp: 3.18

Req: Input O=C(NCCCCN1CCCC1)[C@H]1[C@H](C(=O)Nc2ccc3[nH]ccc3c2)[C@@H]2C=C[C@H]1C21CC1 (racemic) [Example 147]
Resp: 2.92

Req: Next molecule: CCCCCCN(C)C(=O)[C@H]1[C@H](C(=O)Nc2ccc(Br)cc2)[C@@H]2C=C[C@H]1C21CC1 (racemic) [Example 84]
Resp: 3.74

Req: And CC(C)Oc1ccccc1CNC(=O)[C@H]1[C@H](C(=O)NCCCCN2CCCC2)[C@H]2C=C[C@@H]1C21CC1 (racemic) [Example 372] ?
Resp: 2.59
